meta.source: the MegaScale stability set (Tsuboyama et al. 2023)

B1: HEEH_KT_rd6_0007 (parent)
chain: SIEEEIKKAEEAKEKGKTFIHGDFVATTEELLDELLKRLRKKL

# Variants of: B1
# Test summary: folding stability dG (cDNA display proteolysis); higher = more stable
# Condition set: PBS, room temperature
Let's look at some variants and their measured folding stability dG.
Output spec: scalar in kcal/mol, unitless text.

Worked cases, folding stability dG given:
{"Variant label": "F19Y", "Observed result": 1.49}
{"Variant label": "D33W", "Observed result": 1.44}
{"Variant label": "T18N", "Observed result": 1.07}

Short answer for `I6N` : folding stability dG was 0.587

Short answer for `T27P` : folding stability dG was 0.51

Short answer for `A26I` : folding stability dG was 1.27

Short answer for `K42I` : folding stability dG was 1.59

Short answer for `E4I` : folding stability dG was 1.03

Short answer for `G22T` : folding stability dG was 0.814

Short answer for `E4S` : folding stability dG was 1.12

Short answer for `D23A` : folding stability dG was 1.26

Short answer for `E3G` : folding stability dG was 0.881

Short answer for `K15L` : folding stability dG was 1.4

Short answer for `D23F` : folding stability dG was 1.48

Short answer for `K17V` : folding stability dG was 1.43

Short answer for `L35G` : folding stability dG was 0.119
